# test_protocol: melting temperature; fluorescence melt of hairpins on a sequencing array, two-state fit, raised by 9.35 °C to match UV melts
# assay_conditions: sodium 0.088 M
Measured Tm determines class: low range: < 40 °C; mid range: ≥ 40 °C and < 50 °C; high range: ≥ 50 °C

Example entries begin here.
sequence_data	category_label
GACGCCGAAAGGCATGTC ((((((....)))..)))	mid range
GCCTGGGGAAACTCAGGC (((((.(....).)))))	high range
GATCCGATGCGGATC ((((((...))))))	high range
GAAGAGGGAAACCTCCTC ((.((((....)))).))	low range
GCGTAAGGAAACTTATGC ((.((((....)))).))	mid range
GATCAACCCTTTGATC ((((((....))))))	mid range
GCGTTCACACGC ((((....))))	high range
GTACCCGAAAGGGGTAC ((((((....))).)))	high range

input: Category lookup for the sequence GGAGGTGAAAACCTCC ((((((....))))))
output: high range

input: Dear colleague, I would appreciate it if you could identify the bin for GTGCTTGGAAACGAGTAC ((.((.(....).)).)) and reply at your convenience.
output: low range

input: Categorize the following entry: GCGGCATTCCGC ((((....))))
output: high range

---

# test_protocol: folding enthalpy; higher = less favourable; fluorescence melt of hairpins on a sequencing array, two-state fit
# assay_conditions: sodium 0.088 M
property_label: folding enthalpy (kcal/mol)
One number for each entry, in kcal/mol.

sequence_data	unit_annotation	folding enthalpy
GGAAATACGAAAGTATCC (((..(((....))))))	kcal/mol	-11.3
GAACGAGGAAACTCGTTC (((((((....)))))))	kcal/mol	-41.2
GCCGGCGAAAGCCTAGGC ((((((....)))..)))	kcal/mol	-24.5
GGTCGCGAAAGCGCTACC ((((((....)))..)))	kcal/mol	-13
GCGAATTATCGC ((((....))))	kcal/mol	-21.3

Shifting focus to the sequence that follows.
input: Give the value of folding enthalpy reported for the following: GGTTGAGGAAACTCAGTC (..((((....))))..)
output: -14.5

---

Please provide measured folding enthalpy for the entries that follow.
# test_protocol: folding enthalpy; higher = less favourable; fluorescence melt of hairpins on a sequencing array, two-state fit
# assay_conditions: sodium 0.088 M
One number for each entry, in kcal/mol.

Recorded results for 5 sequences are shown here.
sequence_data	folding enthalpy / kcal/mol
GATTGGGGAAACCCAACC (.(((((....))))).)	-14.5
GATCGGTATCCCGATC ((((((....))))))	-34.5
GTGAGCGAAAGCTTACAC ((((((....)))..)))	-14
GTAGACGGAAACGCCTAC ((((.((....)).))))	-32.3
GGAGAAGGAAACTTCTCC (((((((....)))))))	-43.1

Provide reported folding enthalpy for each item, in the same order as listed.
1. GATCAAGGTCTTGATC ((((((....))))))
2. GTTTTTGGAAACAAAAGC (.(((((....))))).)
3. GCTTAGCGAAAGCTCTGC ((..(((....)))..))
4. GATCCAGGCATGGATC ((((((....))))))
5. GGGCTAGGAAACTGGCCC ((((.((....)).))))
6. GGCTCAGGAAACCAAGCC ((((..(....)..))))
7. GCATCACGAAAGTGTTGC (((.(((....))).)))
8. GCGTGTGGAAACACATGC ((.((((....)))).))

output:
[-37.5, -29.6, -16.4, -45.8, -41.4, -31.6, -44, -42]

Dear colleague, could you please provide folding enthalpy for the sequences listed below?
1. GAGCCAGGAAACCAGCTC ((((..(....)..))))
2. GATCTCGCTAGAGATC ((((((....))))))
3. GCTAAGCGAAAGCTAGC (((.(((....))))))
4. GTTGCGGGAAACCGCAGC (.(((((....))))).)
5. GGGGATGGAAACGTTCCC (((.(.(....).).)))
6. GCGACCGAAAGGTGCGC ((((((....))).)))
7. GCCAGCACGAAAGTGGGC (((..(((....))))))

output:
1: -24.6; 2: -43.5; 3: -31.8; 4: -14.2; 5: -30; 6: -28.9; 7: -26.9

Each sequence below has a reported value. Please supply its folding enthalpy.
1. GACTTTGGAAACAGAGTC ((((.((....)).))))
2. GAGGGAGGAAACCCCCTC (((((.(....).)))))
3. GGATCGCCGAAAGGCTCC (((..(((....))))))
4. GATTCCGAAAGGAAGATC ((((((....)))..)))

output:
1. -31.1
2. -28.5
3. -11
4. -22.3

input: Fill in folding enthalpy for record GAGCGCGAAAGCGCACTC ((((((....)))..)))
output: -10
